Test: qHTS for compounds that reverse cellular toxicity of Amyloid beta (A-beta) peptide in yeast: LOPAC Validation Assay (AID 720559)
Settings: yeast expressing A-beta; series mostly up to 46.1 µM
Active and inactive are the calls of the source. The call rests on the fitted dose curve; in most records, active means well fitted curve in the direction sought with a large enough effect; inconclusive means small, poorly fitted or top-dose-only effect, or another doubt; inactive means no such curve, though single readings can be large or run the other way.
readoutName: outcome

Example compounds with recorded outcome:
COC(=O)[C@H]1[C@H]2C[C@@H]3c4[nH]c5cc(OC)ccc5c4CCN3C[C@H]2C[C@@H](OC(=O)c2cc(OC)c(OC)c(OC)c2)[C@@H]1OC: inactive
CC(C)(C)NCC(O)c1cc(O)cc(O)c1 (stereo not given): inactive
CCCCCN(CCCCC)C(=O)C(CCC(=O)O)NC(=O)c1ccc(Cl)c(Cl)c1 (stereo not given): inactive
CCN(CC)CCNC(=O)c1ccc(NC(C)=O)cc1: inactive

Let us examine a further case.
Reported outcome for O=C(O)CN(CCOCCOCCN(CC(=O)O)CC(=O)O)CC(=O)O : what is it?
inactive
